From: the Human Domainome abundance scans (Beltran et al. 2025)

abundance fitness listing for selected variants.
B1: Protein piccolo, residues 1058 to 1114; numbered along this chain, Q9Y6V0 (parent)
chain: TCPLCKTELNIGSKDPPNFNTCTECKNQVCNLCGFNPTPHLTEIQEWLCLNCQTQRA

Variants of: B1
assayOverview: abundance fitness (aPCA) (normalised: wild type 0, dead -1); higher = more abundant; growth selection in yeast, the domain comes from the species named
setupConditions: Homo sapiens

# annotated cases, reported abundance fitness shown
variantIdentifier	abundance fitness
C30T	-0.597
K26H	-0.253
P3I	-0.073
H40L	-0.02

### Prompt Consider the variant shown here: H40R What is its recorded abundance fitness?
### Response 0.093

### Prompt Entry T23Q has what abundance fitness?
### Response -0.36

### Prompt # query: abundance fitness of entry G34W
### Response -0.242

### Prompt Need abundance fitness, item Q28M
### Response 0.186

### Prompt Need abundance fitness of Q45K , thanks.
### Response 0.268

### Prompt For the variant shown here, L50P , give the reported abundance fitness.
### Response 0.329

### Prompt For the variant shown here, W47Y , give the reported abundance fitness.
### Response -0.493

### Prompt State the recorded abundance fitness for this entry: E46W
### Response -0.401

### Prompt abundance fitness for N31I ?
### Response -0.121

### Prompt Look up abundance fitness: G12V
### Response -0.405

### Prompt Could you share which abundance fitness value was measured for N20A ?
### Response -0.001

### Prompt Bench note: what abundance fitness did P17V show?
### Response -0.428

### Prompt Entry P37E has what abundance fitness?
### Response 0.138

### Prompt Need abundance fitness, item T1M
### Response -0.031

### Prompt Tell me the measured abundance fitness of L32T , please.
### Response -0.017

### Prompt If you can, please state the reported abundance fitness value of Q28N .
### Response -0.125

### Prompt # query: abundance fitness of entry K6W
### Response -0.795

### Prompt Entry K26F : reported abundance fitness = ?
### Response -0.025

### Prompt Which measured abundance fitness value corresponds to K26R ?
### Response 0.072

### Prompt // abundance fitness lookup, key: C5N
### Response -0.693

### Prompt Please look up its abundance fitness: F35H
### Response 0.275

### Prompt Entry K6Q has what abundance fitness?
### Response -0.02

### Prompt Fill in: abundance fitness of C49D is ___
### Response -0.597

### Prompt Bench note: what abundance fitness did E43Q show?
### Response -0.167

### Prompt Name the reported abundance fitness value associated with the variant D15E
### Response -0.248

### Prompt Need abundance fitness, item W47K
### Response -0.111
